The measurements presented in this section are drawn from patent US9957271B2.

The following compounds are listed with their measured Emax values.
Biological target: SIRT1 (Homo sapiens, UniProt Q96EB6)
Sequence (Q96EB6 whole entry): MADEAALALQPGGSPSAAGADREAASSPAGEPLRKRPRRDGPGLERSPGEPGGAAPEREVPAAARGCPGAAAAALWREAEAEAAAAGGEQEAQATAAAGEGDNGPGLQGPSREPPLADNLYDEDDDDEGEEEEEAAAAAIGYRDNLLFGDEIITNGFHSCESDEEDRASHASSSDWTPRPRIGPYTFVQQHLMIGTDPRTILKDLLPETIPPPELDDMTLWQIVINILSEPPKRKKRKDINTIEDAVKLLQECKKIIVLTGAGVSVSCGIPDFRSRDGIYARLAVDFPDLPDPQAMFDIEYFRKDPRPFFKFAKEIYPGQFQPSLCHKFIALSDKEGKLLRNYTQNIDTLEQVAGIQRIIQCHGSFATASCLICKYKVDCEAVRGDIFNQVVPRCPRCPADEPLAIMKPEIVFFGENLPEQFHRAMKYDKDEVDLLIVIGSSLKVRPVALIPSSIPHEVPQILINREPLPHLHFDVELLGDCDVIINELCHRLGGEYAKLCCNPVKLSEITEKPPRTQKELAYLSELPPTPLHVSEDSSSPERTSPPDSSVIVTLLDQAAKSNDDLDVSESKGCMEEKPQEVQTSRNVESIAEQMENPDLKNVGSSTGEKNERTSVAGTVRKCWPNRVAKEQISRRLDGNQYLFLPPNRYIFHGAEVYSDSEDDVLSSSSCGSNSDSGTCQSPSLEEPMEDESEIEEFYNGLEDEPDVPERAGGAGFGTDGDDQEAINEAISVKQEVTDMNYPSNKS
Assay: Trp mass spectrometry assay of SIRT1 activity
Format: biochemical
Conditions: percent maximum fold activation of SIRT1; Trp peptide substrate; read-out: Trp % Fold Act

O=C(Nc1ccccn1)c1cnn2ccc(N3CCCC(C(F)(F)F)C3)nc12 (centres unmarked) ... ≥ 350%

API: the following record is the query input.
[in] What does the data say about its Emax? Entry: "Cn1nccc1C(=O)Nc1cnc2ccc(-c3ccccc3C(F)(F)F)nn12"
[out] < 350%

====

The following molecules are listed with their measured Emax values.
Target: UniProt Q96EB6
Assay: Trp mass spectrometry assay of SIRT1 activity
Type: biochemical
Details: Trp assay; percent maximum fold activation; read-out: Trp % Fold Act

The cases that follow already have their Emax on record.
Cc1nc2ccc(N3CC[C@H](F)C3)nn2c1C(=O)Nc1ccccn1 [Compound 840] ... ≥ 350%
Cc1cccnc1NC(=O)c1cnn2ccc(-c3ccccc3C(F)(F)F)nc12 [Compound 653] ... ≥ 350%
O=C(Nc1cccnn1)c1cnc2ccc(N3CCCC3)nn12 [Compound 895] ... < 350%
CN1CCN(c2ccc3ncc(C(=O)Nc4cncc(F)c4)n3n2)CC1 [Compound 951] ... < 350%
CN(C)c1cnnc(NC(=O)c2cnc3ccc(N4CC[C@H](F)C4)nn23)c1 [Compound 924] ... < 350%
Cc1cc(NC(=O)c2cnc3ccc(-c4cccc(OC[C@H](O)CO)c4)nn23)ccn1 [Compound 875] ... < 350%

API: the following record is the query input.
[in] Give Emax (UniProt Q96EB6) of the following molecule: CN(C)c1ccnc(NC(=O)c2cnc3ccc(N4CC[C@H](F)C4)nn23)n1 [Compound 923]
[out] ≥ 350%
